T/C overview
# Tested on: BDF1 mice, B16 melanoma ip, median survival T/C
# procedure details: NCI In Vivo Anticancer Drug Screen. Data for tumor model B16 Melanoma (intraperitoneal) in B6D2F1 (BDF1) mice
# measurement setup: endpoint: median survival time; dose: 100.0 mg/kg/injection; schedule: Q01DX009 (ip); vehicle: Klucel (hydroxypropylcellulose) (HPC); higher = longer survival
Inconclusive results and toxic doses are left out.

[
  {
    "compound": "Cc1c(Cl)cccc1NC(=O)c1ccccc1Cl",
    "T/C": "100 % of control"
  },
  {
    "compound": "O=C1C(CCSc2ccccc2)C(=O)N(c2ccccc2)C1c1ccccc1 (configuration not stated)",
    "T/C": "116 % of control"
  },
  {
    "compound": "Cc1ccc(Cl)cc1NC(=O)c1ccccc1Cl",
    "T/C": "108 % of control"
  },
  {
    "compound": "Cc1ccc(S(=O)(=O)N/N=C(\\C(=O)O)c2ccccc2)cc1",
    "T/C": "89 % of control"
  },
  {
    "compound": "Cc1cccc(C)c1NC(=O)Nc1cccc(Cl)c1",
    "T/C": "100 % of control"
  },
  {
    "compound": "O=C1CNC(c2ccccc2)c2cc(Cl)ccc2N1 (configuration not stated)",
    "T/C": "94 % of control"
  },
  {
    "compound": "c1cc2c(c(NC3=NCCCS3)c1)CCCC2",
    "T/C": "96 % of control"
  },
  {
    "compound": "O=C1OCC2C1Cc1cc(O)c(O)cc1C2c1ccc(O)c(O)c1 (configuration not stated)",
    "T/C": "112 % of control"
  },
  {
    "compound": "O=C(O)c1ccc(SSc2ccc(C(=O)O)cn2)nc1",
    "T/C": "88 % of control"
  },
  {
    "compound": "COc1cc2c(cc1OC)C1=CC(=O)N3CCCC34OS(=O)OC14CC2 (configuration not stated)",
    "T/C": "110 % of control"
  },
  {
    "compound": "CCC/C(C)=C(/C#N)CC",
    "T/C": "109 % of control"
  },
  {
    "compound": "Cc1ccc(NC(=O)C(Cl)(Cl)Cl)cc1C",
    "T/C": "96 % of control"
  }
]

* * *

# Test system: BDF1 mice, B16 melanoma ip, median survival T/C
# procedure details: NCI In Vivo Anticancer Drug Screen. Data for tumor model B16 Melanoma (intraperitoneal) in B6D2F1 (BDF1) mice
# measurement setup: endpoint: median survival time; dose: 10.0 mg/kg/injection; schedule: Q01DX009 (ip); vehicle: Klucel (hydroxypropylcellulose) (HPC); higher = longer survival
Toxic doses and inconclusive results are not listed.

[
  {
    "compound": "CCN(CC)CCCC(C)Nc1cc(C)nc(Nc2nc3cc(Cl)c(Cl)cc3[nH]2)n1 (stereo not given)",
    "tested system": "BDF1 mice, B16 melanoma ip, median survival T/C",
    "T/C": "91 % of control"
  },
  {
    "compound": "CN(C)c1nc(N(C)C)nc(N(C)C)n1",
    "tested system": "BDF1 mice, B16 melanoma ip, median survival T/C",
    "T/C": "108 % of control"
  },
  {
    "compound": "COc1cc2c(cc1OC)C1CNC(=O)C1C(c1ccccc1)C2 (stereo not given)",
    "tested system": "BDF1 mice, B16 melanoma ip, median survival T/C",
    "T/C": "94 % of control"
  },
  {
    "compound": "CCCCCCCC(=O)O[C@H]1[C@H]2[C@@H](CC1(C)C)C(=O)[C@]13O[C@H]1C(=O)[C@]1(CO1)[C@]23C",
    "tested system": "BDF1 mice, B16 melanoma ip, median survival T/C",
    "T/C": "86 % of control"
  },
  {
    "compound": "CCCCCCC(=O)O[C@H]1CC[C@H]2[C@@H]3CCC4=CC(=O)CC[C@]4(C)[C@H]3CC[C@]12C",
    "tested system": "BDF1 mice, B16 melanoma ip, median survival T/C",
    "T/C": "96 % of control"
  }
]

* * *

# System: BDF1 mice, B16 melanoma ip, median survival T/C
# procedure details: NCI In Vivo Anticancer Drug Screen. Data for tumor model B16 Melanoma (intraperitoneal) in B6D2F1 (BDF1) mice
# measurement setup: endpoint: median survival time; dose: 1.0 mg/kg/injection; schedule: Q01DX009 (ip); vehicle: saline with Tween-80
Toxic doses and inconclusive results are not listed. The calls were made as follows: active = survival T/C of 150% or more; inactive = T/C below 125% in these data.
Outcome codes: y = active, n = inactive

[
  {
    "compound": "CC(=O)[S][Pb]([c]1ccccc1)([c]1ccccc1)[c]1ccccc1",
    "discrete label": "n"
  },
  {
    "compound": "C1CN1P1(N2CC2)=NP(N2CC2)(N2CC2)=NP(N2CC2)(N2CC2)=N1",
    "discrete label": "n"
  },
  {
    "compound": "COC1=C(N2CC2)C(=O)C(OC)=C(N2CC2)C1=O",
    "discrete label": "y"
  },
  {
    "compound": "CC1CN1c1nc(N2CC2C)nc(N2CC2C)n1 (centres undefined)",
    "discrete label": "n"
  }
]

* * *

Below is a list of entries, each paired with its recorded T/C value.
# Tested on: BDF1 mice, B16 melanoma ip, median survival T/C
# procedure details: NCI In Vivo Anticancer Drug Screen. Data for tumor model B16 Melanoma (intraperitoneal) in B6D2F1 (BDF1) mice
# measurement setup: endpoint: median survival time; dose: 400.0 mg/kg/injection; schedule: Q04DX003 (ip); vehicle: Klucel (hydroxypropylcellulose) (HPC); higher = longer survival
Inconclusive results and toxic doses are left out.

[
  {
    "compound": "O=C1CC(CO)CN1CCc1ccccc1 (configuration not stated)",
    "T/C": "102 % of control"
  },
  {
    "compound": "O=P(O)(O)OCCCl",
    "T/C": "103 % of control"
  },
  {
    "compound": "CCOC(=O)C(NC(C)=O)C(=O)OCC",
    "T/C": "95 % of control"
  },
  {
    "compound": "Cc1cccc(C)c1NC(=O)Nc1cccc(Cl)c1",
    "T/C": "100 % of control"
  },
  {
    "compound": "Cc1cc2nc(CO)[nH]c2cc1C",
    "T/C": "97 % of control"
  },
  {
    "compound": "CCOC1c2cc(OC)ccc2C(=O)CCN1S(=O)(=O)c1ccc(C)cc1 (configuration not stated)",
    "T/C": "102 % of control"
  },
  {
    "compound": "O=C(O)/C=C/C(=O)Nc1ccccc1",
    "T/C": "103 % of control"
  }
]

* * *

# Test system: BDF1 mice, B16 melanoma ip, median survival T/C
# procedure details: NCI In Vivo Anticancer Drug Screen. Data for tumor model B16 Melanoma (intraperitoneal) in B6D2F1 (BDF1) mice
# measurement setup: endpoint: median survival time; dose: 2.0 mg/kg/injection; schedule: Q01DX009 (ip); vehicle: saline
# Protocol: The antitumor activity of compounds was measured in mice bearing transplantable tumors. Survival or tumor size were measured and the results are expressed as the measurement made in the treated group (T) divided by the measurement made in the vehicle treated control group (C). The tumor model used in this assay is B16 Melanoma (intraperitoneal) in B6D2F1 (BDF1) mice
Inconclusive results and toxic doses are left out. How the source made its calls: active means survival T/C of 150% or more; inactive means T/C below 125% in these data.
Outcomes: true for active, false for inactive

[
  {
    "compound": "COc1cc(NC(N)=O)ccc1Nc1c2ccc(N)cc2nc2cc(N)ccc12",
    "discrete label": "false"
  },
  {
    "compound": "COC(=O)C[C@](O)(CCC(C)(C)O)C(=O)O[C@@H]1C(OC)=C[C@]23CCCN2CCc2cc4c(cc2[C@H]13)OCO4",
    "discrete label": "false"
  },
  {
    "compound": "O=C1C(N2CCCC2)=C(N2CC2)C(=O)C(N2CCCC2)=C1N1CC1",
    "discrete label": "false"
  },
  {
    "compound": "O=C(O)C(=O)O.O=C([O-])C(=O)O.O=C([O-])C(=O)O.O=C([O-])C(=O)[O-].[K+].[U]",
    "discrete label": "false"
  },
  {
    "compound": "CC[CH2][Sn]([Cl])([Cl])[CH2]CC",
    "discrete label": "false"
  },
  {
    "compound": "O=c1[nH]cc(F)c(=O)[nH]1",
    "discrete label": "false"
  },
  {
    "compound": "Cc1c(N)nc(C(CC(N)=O)NCC(N)C(N)=O)nc1C(=O)NC(C(=O)NC(C)C(O)C(C)C(=O)NC(C(=O)NCCc1nc(-c2nc(C(=O)NCCCNC(C)c3ccccc3)cs2)cs1)C(C)O)C(OC1OC(CO)C(O)C(O)C1OC1OC(CO)C(O)C(OC(N)=O)C1O)c1cnc[nH]1 (stereo not drawn)",
    "discrete label": "false"
  },
  {
    "compound": "NC(Cc1ccc(N(CCCl)CCCl)cc1)C(=O)O (stereo not drawn)",
    "discrete label": "true"
  }
]

Hey, just so you know, these numbers are from PubChem BioAssay AID192.
